experiment: gradient 5% acetonitrile 3 min, to 50% in 2 min, to 85% in 15 min, held 3 min, 100 µL/min; settings: column: Zorbax Extend-C18 2.1 x 50 mm; eluents: water / acetonitrile, 0.1% formic acid
ATTRIBUTE MEASURED: RP-LC retention time (s)

| COMPOUND | ATTRIBUTE MEASURED | RESULT VALUE |
| --- | --- | --- |
| CCN1CCN(c2ncc3c(n2)CCN(Cc2ccc(Cl)c(F)c2)C3)CC1 | RP-LC retention time | 575 |
| CCc1noc(C2(NC(=O)c3ccc(Cl)cc3)CCCCC2)n1 | RP-LC retention time | 1010 |
| Cc1ccc(CN2C[C@@H](CO)[C@H](c3nc(-c4cccnc4)no3)C2)o1 | RP-LC retention time | 596 |
| Cc1cccc(S(=O)(=O)N2CC3CN(C(=O)c4ccco4)CC(C2)O3)c1 | RP-LC retention time | 933 |
| O=C(c1cccs1)N1CCCC(c2ccnc(Nc3cccc(F)c3)n2)C1 (stereo not given) | RP-LC retention time | 957 |
| O=C(C1=NN(CCc2ccccc2)c2cc(Cl)ccc2S1(=O)=O)N1CCOCC1 | RP-LC retention time | 906 |
| CCOC(=O)c1noc2nc(C)nc(Nc3ccc(OC)cc3)c12 | RP-LC retention time | 938 |
| CCn1c(CCc2ccccc2NS(=O)(=O)c2ccc(F)cc2F)nc2ccccc21 | RP-LC retention time | 755 |
| Cc1sc2ccn(CC(C)C)c(=O)c2c1C(=O)N1CCCCC1 | RP-LC retention time | 837 |
| CCc1cccc(NC(=O)CSc2cc(N3CCN(c4ccc(OC)cc4)CC3)ncn2)c1 | RP-LC retention time | 1040 |
| COc1ccc(NC(=O)CN2CCc3[nH]c4ccc(OC)cc4c(=O)c3C2)c(OC)c1 | RP-LC retention time | 609 |
| Cc1ccccc1Nc1c(-c2ccc(N(C)C)cc2)nc2cnccn12 | RP-LC retention time | 833 |
| O=C(NCC1CCCCC1)C1CCCN(c2ccc(-c3ccccc3)nn2)C1 (stereo not given) | RP-LC retention time | 762 |
| Cn1c(C2CCN(C(=O)c3cccc(Cl)c3)C2)nc2cccnc21 (stereo not given) | RP-LC retention time | 688 |
| CCN(Cc1ccccc1)C(=O)c1cn(-c2cc(N3CCC(C)CC3)ncn2)cn1 | RP-LC retention time | 1120 |
| Cc1nn(-c2ccccc2)c(C)c1S(=O)(=O)N1CCC(C(=O)N2CCOCC2)CC1 | RP-LC retention time | 740 |
| COc1cccc(CNC(=O)C2(C)CCCN(C(=O)Nc3ccc(Br)cc3)C2)c1 (stereo not given) | RP-LC retention time | 969 |
| O=C(NCc1ccccc1)C1CC(=O)N(CCc2c[nH]c3ccc(F)cc23)C1 (stereo not given) | RP-LC retention time | 764 |
| CSc1ccccc1CN1CCC(CNC(=O)C(=O)Nc2ccon2)CC1 | RP-LC retention time | 558 |
| COCCCNC(=O)N1CCN(c2nnc(C)c3c(C)n(-c4ccc(C)cc4)nc23)CC1 | RP-LC retention time | 643 |
